# testedOn: Human M2 receptor (Homo sapiens)
# Construct: expressed in transfected cells
# assayDetails: FLIPR Calcium 6 assay for inhibitory activity against Human M2 receptor in CHO cells
# Type: cell-based
# conditionLabel: Human M2-CHO cells, FLIPR calcium signal, antagonist mode; read-out: M2 IC50
experimentalReadout: IC50 (nM)

- molecule: "CCN(CCN(C)C1CCC2(CCCCC2)CC1)C(=O)CCC(=O)N1c2ccccc2C(=O)Nc2cccnc21"
  experimentalReadout: "IC50"
  experimentalValue: 3.23
- molecule: "CCN(CCN(C)C1C2CCCC21)C(=O)CCC(=O)N1c2ccccc2C(=O)Nc2cccnc21 (stereo not drawn)"
  experimentalReadout: "IC50"
  experimentalValue: 5.46
- molecule: "CCN(CCN1CCC2(CCCCC2)CC1)C(=O)CCC(=O)N1c2ccccc2C(=O)Nc2cccnc21"
  experimentalReadout: "IC50"
  experimentalValue: 0.733
- molecule: "CCN(CCN1CCC2(CCC2)CC1)C(=O)CCC(=O)N1c2ccccc2C(=O)Nc2cccnc21"
  experimentalReadout: "IC50"
  experimentalValue: 0.896
- molecule: "O=C1Nc2cccnc2N(C(=O)CCC(=O)N2CCCC2CN2CCC3(CCCCC3)CC2)c2ccccc21 (stereo not drawn)"
  experimentalReadout: "IC50"
  experimentalValue: 1.14
- molecule: "CCN(CCN(C)CC12CCC(CC1)C2)C(=O)CCC(=O)N1c2ccccc2C(=O)Nc2cccnc21"
  experimentalReadout: "IC50"
  experimentalValue: 1.49
- molecule: "CCN(CC)CC1CCCCN1CC(=O)N1c2ccccc2C(=O)Nc2cccnc21 (stereo not drawn) [AFDX-116, reference compound]"
  experimentalReadout: "IC50"
  experimentalValue: 166
- molecule: "CCN(CCN(C)C1CC2CCCC2C1)C(=O)CCC(=O)N1c2ccccc2C(=O)Nc2cccnc21 (stereo not drawn)"
  experimentalReadout: "IC50"
  experimentalValue: 1.82

[A] CCN(CCN(C)C1CCC2(CCCC2)C1)C(=O)CCC(=O)N1c2ccccc2C(=O)Nc2cccnc21 (stereo not drawn)
[B] CCN(CCN1CC2CC2C1)C(=O)CCC(=O)N1c2ccccc2C(=O)Nc2cccnc21 (stereo not drawn)
[C] CCN(CCN(C)CC1CCC2(CCCCC2)CC1)C(=O)CCC(=O)N1c2ccccc2C(=O)Nc2cccnc21
Prompt: Ranking field: IC50; order: falling. Rank the items, then write their labels in that order.
Response: C, A, B

[I] CCN(CCN(C)C1CC2(CCC2)C1)C(=O)CCC(=O)N1c2ccccc2C(=O)Nc2cccnc21
[II] O=C1Nc2cccnc2N(C(=O)CCC(=O)N2CCCCC2CN2CCC3(CCCCC3)CC2)c2ccccc21 (stereo not drawn)
Prompt: Given the listed records, identify the one among I and II with higher IC50. Kindly state the label of the option you pick.
Response: I

[A] CCN(CCN(C)C12CC3CC(CC(C3)C1)C2)C(=O)CCC(=O)N1c2ccccc2C(=O)Nc2cccnc21
[B] CCN(CCN(C)C1CC2(CCCCC2)C1)C(=O)CCC(=O)N1c2ccccc2C(=O)Nc2cccnc21
Prompt: # min-compare on IC50 between A and B Choose, then provide that item's label.
Response: A

* * *

# testedOn: Human M3 receptor (Homo sapiens, UniProt P20309)
# Sequence (P20309 whole entry): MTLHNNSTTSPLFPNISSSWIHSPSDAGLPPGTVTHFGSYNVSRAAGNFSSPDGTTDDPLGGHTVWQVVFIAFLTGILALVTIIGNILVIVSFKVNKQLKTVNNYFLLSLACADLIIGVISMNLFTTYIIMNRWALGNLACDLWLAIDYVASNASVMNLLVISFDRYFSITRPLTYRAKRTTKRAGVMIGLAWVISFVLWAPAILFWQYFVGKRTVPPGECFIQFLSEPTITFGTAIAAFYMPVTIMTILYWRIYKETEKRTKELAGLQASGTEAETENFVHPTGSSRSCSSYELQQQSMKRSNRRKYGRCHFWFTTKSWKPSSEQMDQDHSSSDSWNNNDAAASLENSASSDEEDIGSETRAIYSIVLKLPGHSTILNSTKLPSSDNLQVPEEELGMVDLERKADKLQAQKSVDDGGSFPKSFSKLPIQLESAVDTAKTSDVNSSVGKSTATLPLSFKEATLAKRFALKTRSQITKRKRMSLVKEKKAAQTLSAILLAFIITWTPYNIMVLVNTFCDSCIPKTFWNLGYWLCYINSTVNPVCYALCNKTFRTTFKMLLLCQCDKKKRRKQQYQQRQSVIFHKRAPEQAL
# assayDetails: FLIPR Calcium 6 assay for inhibitory activity against Human M3 receptor in CHO cells
# conditionLabel: FLIPR calcium signal, antagonist mode
pIC50: −log10 of the molar value.
experimentalReadout: pIC50

- compound: "O=C1Nc2cccnc2N(C(=O)CCC(=O)N2CCCC2CN2CCC3(CCCCC3)CC2)c2ccccc21 (stereo not shown)"
  experimentalValue: 6.61

[a] O=C1Nc2cccnc2N(C(=O)CCC(=O)N2CCCCC2CN2CCC3(CCCCC3)CC2)c2ccccc21 (stereo not shown)
[b] CCN(CCN1CCC2(CCCCC2)CC1)C(=O)CCC(=O)N1c2ccccc2C(=O)Nc2cccnc21
Prompt: From the items above, decide which of a and b has the lower pIC50 reading. Please reply using the label of the selected record.
Response: a

* * *

# testedOn: Human M2 receptor (Homo sapiens, UniProt P08172)
# Construct: expressed in transfected cells
# Sequence (P08172 whole entry): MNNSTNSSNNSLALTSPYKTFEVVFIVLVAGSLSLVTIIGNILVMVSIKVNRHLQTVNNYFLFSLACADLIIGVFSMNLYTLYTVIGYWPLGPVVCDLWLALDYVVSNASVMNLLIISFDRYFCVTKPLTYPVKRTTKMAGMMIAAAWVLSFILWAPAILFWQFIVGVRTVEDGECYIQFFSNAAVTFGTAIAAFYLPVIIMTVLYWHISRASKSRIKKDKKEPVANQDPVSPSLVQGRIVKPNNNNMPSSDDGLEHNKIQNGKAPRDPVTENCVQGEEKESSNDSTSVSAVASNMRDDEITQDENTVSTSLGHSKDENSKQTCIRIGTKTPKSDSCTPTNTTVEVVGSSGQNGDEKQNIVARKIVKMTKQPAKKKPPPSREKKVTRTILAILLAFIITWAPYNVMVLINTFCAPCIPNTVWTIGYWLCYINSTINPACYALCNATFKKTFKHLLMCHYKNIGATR
# assayDetails: FLIPR Calcium 6 assay for inhibitory activity against Human M2 receptor in CHO cells
# Type: cell-based
experimentalReadout: IC50 (nM)
# number only, unit nM dropped from output

Prompt: I'd like to know its IC50. The compound in question is CCN(CCN1C2CCCC1CC2)C(=O)CCC(=O)N1c2ccccc2C(=O)Nc2cccnc21 [Compound 5]
Response: 2.74

* * *

# testedOn: UniProt P20309
# assayDetails: FLIPR Calcium 6 assay for inhibitory activity against Human M3 receptor in CHO cells
# conditionLabel: FLIPR calcium signal, antagonist mode
experimentalReadout: IC50 (nM)

Below, each entry is followed by its recorded IC50 result.
- compound: "CCN(CCN(C)CC12CCC(CC1)C2)C(=O)CCC(=O)N1c2ccccc2C(=O)Nc2cccnc21"
  IC50, nM: 132
- compound: "CCN(CCN1C2CCCC1CC2)C(=O)CCC(=O)N1c2ccccc2C(=O)Nc2cccnc21"
  IC50, nM: 673

[1] CCN(CCN(C)C1CC2(CCC2)C1)C(=O)CCC(=O)N1c2ccccc2C(=O)Nc2cccnc21
[2] CCN(CCN(C)C1CCC2(CCCC2)C1)C(=O)CCC(=O)N1c2ccccc2C(=O)Nc2cccnc21 (stereo not shown)
Prompt: Form: Entry with minimum IC50 (choose one): 1 / 2 Please respond with the label that marks your chosen entry.
Response: 2

* * *

# testedOn: Human M3 receptor (Homo sapiens)
# assayDetails: FLIPR Calcium 6 assay for inhibitory activity against Human M3 receptor in CHO cells
# conditionLabel: FLIPR calcium signal, antagonist mode
experimentalReadout: IC50 (nM)

- compound: "CCN(CCN(C)C1C2CCCC21)C(=O)CCC(=O)N1c2ccccc2C(=O)Nc2cccnc21 (stereo not drawn)"
  experimentalReadout: "IC50"
  experimentalValue: 260

[a] CCN(CCN1CCC2(CCC2)CC1)C(=O)CCC(=O)N1c2ccccc2C(=O)Nc2cccnc21
[b] CCN(CCN(C)C1CC2(CCCCC2)C1)C(=O)CCC(=O)N1c2ccccc2C(=O)Nc2cccnc21
Prompt: Sort a and b by IC50 descending and give the first. Please identify the chosen entry by its label.
Response: b

* * *

# testedOn: Human M2 receptor (Homo sapiens)
# Construct: expressed in transfected cells
# assayDetails: FLIPR Calcium 6 assay for inhibitory activity against Human M2 receptor in CHO cells
# Assay type: cell-based
# conditionLabel: IC50 ratio of M3/M2
experimentalReadout: M3/M2 selectivity

Worked cases, M3/M2 selectivity given:
- compound: "CCN(CCN(C)C1CC2(CCCCC2)C1)C(=O)CCC(=O)N1c2ccccc2C(=O)Nc2cccnc21 [Compound 10]"
  testedOn: "Human M2 receptor (Homo sapiens)"
  experimentalReadout: "M3/M2 selectivity"
  experimentalValue: 762
- compound: "CCN(CCN(C)CC1CCC2(CCCCC2)CC1)C(=O)CCC(=O)N1c2ccccc2C(=O)Nc2cccnc21 [Compound 3]"
  testedOn: "Human M2 receptor (Homo sapiens)"
  experimentalReadout: "M3/M2 selectivity"
  experimentalValue: 1041
- compound: "CCN(CCN1C2CCCC1CC2)C(=O)CCC(=O)N1c2ccccc2C(=O)Nc2cccnc21 [Compound 5]"
  testedOn: "Human M2 receptor (Homo sapiens)"
  experimentalReadout: "M3/M2 selectivity"
  experimentalValue: 245.6

[I] CCN(CCN(C)C1C2CCCC21)C(=O)CCC(=O)N1c2ccccc2C(=O)Nc2cccnc21 (stereo not drawn) [Compound 13]
[II] CCN(CC)CC1CCCCN1CC(=O)N1c2ccccc2C(=O)Nc2cccnc21 (stereo not drawn) [AFDX-116, reference compound]
[III] CCN(CCN(C)CC12CCC(CC1)C2)C(=O)CCC(=O)N1c2ccccc2C(=O)Nc2cccnc21 [Compound 4]
Prompt: Highest M3/M2 selectivity first, then in falling order down to the smallest. # output: labels, in the requested order
Response: III, I, II
